The molecules listed here are annotated with their activity change, negative = inhibition.
# Experiment Summary: NFAT Signaling Pathway (AID 444);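 further: carbachol stimulus at about its EC50 of 1 µM final; on the % scale 0 is the no-effect control and ±100 the full control effect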
# Stated Conditions: Jurkat NFAT-bla M1, carbachol, beta-lactamase ratio, 5 h; at 17.2 µM (top of the series) unless noted
Records with an inconclusive call do not appear.
Reported Metric: activity change, negative = inhibition (%)

Molecule: Cc1ccc(-c2n[nH]c(=O)c3ccccc23)cc1S(=O)(=O)NCCN1CCOCC1
Unit Abbrev: %
Test Result: -9.43
//
Molecule: Cn1c(=O)n(CCC(=O)O)c2ccccc21
Unit Abbrev: %
Test Result: 2
//
Molecule: c1ccc2c(c1)[nH]c1c(N3CCC4(CC3)OCCO4)ncnc12
Unit Abbrev: %
Test Result: 7.49
//
Molecule: CCOC(=O)c1ccc(NC(=O)CCC(CC)C(=O)O)cc1 (stereo not given)
Unit Abbrev: %
Test Result: -11.6
//
Molecule: O=C(C1CC1(c1ccccc1)c1ccccc1)N1CCOCC1 (stereo not given)
Unit Abbrev: %
Test Result: 10.4
//
Molecule: CCc1[nH]c(=O)c(C#N)c2c1CSC(C)(C)C2
Unit Abbrev: %
Test Result: 3.33
//
Molecule: COC(=O)c1ccccc1N1C(=O)[C@@H]2C(c3ccc(Br)cc3)=NO[C@@H]2C1=O
Unit Abbrev: %
Test Result: 19.8
//
Molecule: N#CCCn1cnc2c(=S)nc[nH]c21
Unit Abbrev: %
Test Result: 11.2
//
Molecule: COCCOC(=O)c1c(C)nc(SCC(=O)Nc2ccc(C)cc2)c(C#N)c1-c1ccco1
Unit Abbrev: %
Test Result: -11.8
//
Molecule: Cc1nc(NS(=O)(=O)c2ccccc2)sc1NC(=O)OC(C)C
Unit Abbrev: %
Test Result: -1.13

* * *

# Test system: CP268
# Experiment Summary: qHTS profiling for inhibitors of Plasmodium falciparum proliferation (AID 504749); further: nearly all actives have a fitted effect of over 60% in size
# Stated Conditions: P. falciparum in erythrocytes, SYBR Green DNA, 72 h; series mostly up to 28.7 µM
# Protocol: NIH National Institute of Allergy and Infectious Diseases [NIAID] NIH Chemical Genomics Center [NCGC] […] Because mature erythrocytes lack DNA, only Plasmodium-derived DNA is detected. NCGC Assay Protocol Summary: The SYBR Green viability assay was adapted from a method described previously (Plouffe et al., 2008). […] The following morning, fluorescence intensity at 485(14) nm excitation and 535(25) nm emission wavelengths was measured on an EnVision (Perkin Elmer) plate reader. […]
Inconclusive results are not listed. Active and inactive are the calls of the source. Calls follow the shape of the dose curve; as a rule, active = well fitted inhibition curve with a large enough effect; inconclusive = small, poorly fitted or top-dose-only effect; inactive = flat fitted curve, though single readings scatter.
Classes used: t (active), f (inactive)

Compound: CCCCCCCCCCCC(=O)OCC(O)C1OCC(O)C1O (stereo unspecified)
Assayed System: CP268
Cat: f

Compound: CCC(C(=O)C(C)C(O)C(C)CCc1ccc(C)c(O)c1C(=O)O)C1OC(CC)(C2CC[C@@](O)(CC)C(C)O2)CC1C (stereo partly specified)
Assayed System: CP268
Cat: t

Compound: CN[C@H](C)CCC=C(C)C
Assayed System: CP268
Cat: t

Compound: NC(=O)C1CC2(NC(=O)NC2=O)c2cc(F)ccc2O1 (stereo unspecified)
Assayed System: CP268
Cat: f

Compound: CC[C@H]1OC(=O)[C@H](C)C(=O)[C@H](C)[C@@H](OC2O[C@H](C)C[C@H](N(C)C)[C@@H]2O)[C@@](C)(OC)C[C@@H](C)C(=O)[C@@H](C)C2N(CCCCn3cnc(-c4cccnc4)c3)C(=O)O[C@@]21C (stereo partly specified)
Assayed System: CP268
Cat: f

Compound: CC(C)(C)C(=O)OCC(=O)C1CCC2C3CCC4=CC(=O)CCC4(C)C3CCC12C (stereo unspecified)
Assayed System: CP268
Cat: f

Compound: C=C1CC[C@H](O)C/C1=C/C=C1\CCC[C@]2(C)[C@@H]([C@H](C)CCCC(C)(C)O)CC[C@@H]12
Assayed System: CP268
Cat: f

Compound: NC(=O)c1ncn(C2OC(CO)C(O)C2O)c1N (stereo unspecified)
Assayed System: CP268
Cat: f

Compound: CO/N=C(/C(=O)N[C@@H]1C(=O)N2C(C(=O)O)=C(C[n+]3ccc(N)n3CCO)CS[C@H]12)c1csc(N)n1
Assayed System: CP268
Cat: f

Compound: C[C@@H](O)[C@@H]1C(=O)N2C(C(=O)O)=C([C@H]3CCCO3)S[C@H]12
Assayed System: CP268
Cat: f

Compound: COc1cc2c(cc1O)CCN[C@@]21CS[C@H]2c3c(OC(C)=O)c(C)c4c(c3C(COC1=O)N1C2C2c3c(cc(C)c(OC)c3O)CC([C@@H]1O)N2C)OCO4 (stereo partly specified)
Assayed System: CP268
Cat: t

* * *

# Experiment Summary: AP1 Signaling Pathway (AID 357);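 further: ME-180 reporter cells stimulated with EGF at its EC50 level; on the % scale 0 is the no-effect control and ±100 the full control effect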
# Stated Conditions: ME-180 (cervical carcinoma) AP-1-bla reporter, EGF-induced, beta-lactamase ratio, 5 h; at 17.2 µM (top of the series) unless noted
# Method: NCGC Assay Overview: Activator protein-1 (AP-1), a transcription factor, plays an important role in tumor genesis by regulating genes involved in cell proliferation, differentiation, apoptosis, and angiogenesis. AP-1 activity is induced by a complex network of signaling pathways that involves extracellular signals, such as growth factors. […] Library compounds were measured for their ability to modulate positively or negatively the action of EC50 EGF on reporter gene activity. […]
Records with an inconclusive call do not appear.
The compounds listed here are annotated with their activity change, negative = inhibition.

Compound: CCOC(=O)c1[nH]c2ccc(Br)cc2c1NC(=O)CNC
Unit Abbrev: %
activity change, negative = inhibition: 18.8

Compound: CC1(C)CC(=O)c2cc(C(=O)N3CCCC(C)(C)C3)c(=O)n(-c3ccccc3)c2C1
Unit Abbrev: %
activity change, negative = inhibition: 8.53

Compound: CCN1CCc2c(C#N)c(NCc3ccccc3)nc(N(CC)CC)c2C1
Unit Abbrev: %
activity change, negative = inhibition: 2.07

Compound: Cc1cc(C)n(CC2CC(=O)N(c3ccc(C)c(Cl)c3)C2=O)n1 (stereo unspecified)
Unit Abbrev: %
activity change, negative = inhibition: -6.66

Compound: Cc1ccc(-n2c(=O)c3c4c(sc3n3c(C)nnc23)COC(C(C)C)C4)cc1 (stereo unspecified)
Unit Abbrev: %
activity change, negative = inhibition: -7.34

Compound: COc1cc(-n2c3nc4ccccc4nc3c3c(=O)n(Cc4ccco4)cnc32)cc(OC)c1OC
Unit Abbrev: %
activity change, negative = inhibition: -7.36

Compound: CCOC(=O)c1[nH]c2ccc(C)cc2c1N=CN(CC)CC
Unit Abbrev: %
activity change, negative = inhibition: 7.82

Compound: N#Cc1nc(COc2ccccc2)oc1N1CCCC1
Unit Abbrev: %
activity change, negative = inhibition: -20.4

Compound: COC(=O)c1nn2c(C(F)(F)F)cc(-c3ccc(Br)o3)nc2c1Br
Unit Abbrev: %
activity change, negative = inhibition: 0.345

Compound: CCCCCSc1nc(N2CCOCC2)c2c(c1C#N)CC(C)(C)OC2
Unit Abbrev: %
activity change, negative = inhibition: -13.1

Compound: COc1cc(C)nc(Oc2ccc(=O)[nH]n2)n1
Unit Abbrev: %
activity change, negative = inhibition: 16.4

* * *

# System: CP265
# Experiment Summary: qHTS profiling for inhibitors of Plasmodium falciparum proliferation (AID 504749); further: nearly all actives have a fitted effect of over 60% in size
# Stated Conditions: P. falciparum in erythrocytes, SYBR Green DNA, 72 h; series mostly up to 28.7 µM
Records with an inconclusive call do not appear. Calls of active or inactive are those of the source. Calls come from the whole dose curve; as a rule, active = well fitted inhibition curve with a large enough effect; inconclusive = small, poorly fitted or top-dose-only effect; inactive = flat fitted curve, though single readings scatter.
Classes used: true (1) for active, false (0) for inactive

Molecule: CO[C@H]1C[C@@H]2CC[C@@H](C)[C@@](O)(O2)C(=O)C(=O)N2CCCC[C@H]2C(=O)O[C@H]([C@H](C)C[C@@H]2CC[C@@H](O)[C@H](OC)C2)CC(=O)[C@H](C)/C=C(\C)[C@@H](O)[C@@H](OC)C(=O)[C@H](C)C[C@H](C)/C=C/C=C/C=C/1C
Cat: true (1)

Molecule: Cc1cnc(NC(=O)C2C(=O)c3ccccc3S(=O)(=O)N2C)s1 (centres undefined)
Cat: false (0)

Molecule: Cc1ccc(Nc2ncccc2C(=O)O)cc1C
Cat: false (0)

Molecule: NC(CSSCC(N)C(=O)O)C(=O)O (centres undefined)
Cat: false (0)

Molecule: O=C1NC(=O)C2C3C=CC(C3)C12 (centres undefined)
Cat: false (0)

Molecule: CC1C(=O)C(=O)C=CN1C (centres undefined)
Cat: false (0)

Molecule: CN1[C@@H]2CC[C@@H]1CC(OC(=O)[C@H](CO)c1ccccc1)C2 (some centres undefined)
Cat: false (0)

Molecule: O=c1ccn(C2OC(COP(=O)(O)OC3C(CO)OC(n4ccc(=O)[nH]c4=O)C3O)C(O)C2O)c(=O)[nH]1 (centres undefined)
Cat: false (0)

Molecule: COC(=O)C1C2CC3c4[nH]c5cc(OC)ccc5c4CCN3CC2CC(OC)C1OC (centres undefined)
Cat: false (0)

Molecule: OCCN1CC(O)C(O)C(O)C1CO (centres undefined)
Cat: false (0)

Molecule: C[C@@H](O)[C@@H]1C(=O)N2C(C(=O)O)=C([C@H]3CCCO3)S[C@H]12
Cat: false (0)

Molecule: CC(=O)NC[C@@H]1CN(c2ccc(N3CCOCC3)c(F)c2)C(=O)O1
Cat: false (0)

Molecule: CC1(Cn2ccnn2)[C@H](C(=O)O)N2C(=O)C[C@H]2S1(=O)=O (some centres undefined)
Cat: false (0)

Molecule: CCCCCOC(=O)Nc1nc(=O)n(C2O[C@H](C)[C@@H](O)[C@@H]2O)cc1F (some centres undefined)
Cat: false (0)

Data provenance is PubChem BioAssay (NCATS).
